assay: yeast display, Sf9 membrane polyspecificity reagent, FACS + sequencing; frameworks hold sequencing errors

sequence-entry | polyreactivity (PSR sort gate)
QVQLVESGGGLVQAGGSLRLSCAASGSISGRYAMGWYRQAPGKERELVAAISWIGGSTYYADSVKGRFTISRDNAKNTVYLQMNSLKPEDTAVYYCNVTIDTRTHPLLVVFYGYDYWGQGTQVTVSS | low polyreactivity
QVQLVESGGGLVQAGGSLRISCAASGSILFGNAMGWYRQAPGKERELVAAITVSGGSTYYADSVKGRFTISRDNAKNTVYLQMNSLKPEDTAVYYCAAVSLFRDSQFDYWGQGTQVTVSS | low polyreactivity
QVQLVESGGGLVQAVGSHRLSCAASGFIFTSYAMGWYRQAPGKERELVAAITRSGGRTYYADSVKGRFTISRDNAKNTVYLQMNSLKPEDTAVYYCAAVTFYQSPARGYWGQGTQVTVSS | high polyreactivity
QVQLVESGGGLVQAGGSLRLSCAASGGIFGRYAMGWYIQAPGKERELFAAISKRGGSTYYADSVKGRFTISRDNAKNTVYLQMNSLKPEDTAVYYCNAYRLSYTTFGKADGDYWGQGTQVTVSS | high polyreactivity
QVQLEESGGGLVQAGGSLRLSCAASGLTLGRYAMGWYRQAPGKERELVAVITGGGSTNYADSVKGRFTISRDNAKNTVYLQMNSLKPEDTAVYSCAVRGGIFQTLSTWYRYYYWGQGTQVTVSS | high polyreactivity
QVQHVESVGGLVQAGGSLRLSCAASGRTLKKNAMGWYRQAPGKERELVAAISTGGRTYYADSVKGRFTISRDNAKNTVYLQMNSLKPEDTAVYYCNFQFLSWSTIWGNDYWGQGTQVTVSS | high polyreactivity
QVQLVESGGGLVQAGGSLRLSCAASGSIFLLYAMGWYRQAPGKERELVAAMSRGGSTYADSVKGRFTISRDNAKNTVYLQMNSLKPEVTAVYYCAASDQYRWYVHRWEDPFYYWGQGTQVTVSS | low polyreactivity
QVQLVESGGGLVQAGGSLRLSCAASGRIFVTNAMGWYRQAPGKERELVAAITRGGSTNYADSVKGRFTISRDNAKNTVYLQMNSLKPEDTAVYYCAAKRRYYGPWSRIGYDYWGQGTQVTVSS | low polyreactivity
QVQLVESGGGLVQAGGSLRLSCAASGFTFWIYAMGWYRQAPGKERELVAVISRGGSTYYADSVKGRFTISRDNAKNTVYLQMNSLKPEDTAVYYCNAVGVRGYDYWGQGTQVTVSS | high polyreactivity
QVQLVESGGGLVQAGGSLRLSCAASGSIISRNAMGWYRQAPGKEREFVAAITRSGGSTSYADSVKGRFTISRDNAKSTVYLQMNSLKPEDTAVYYCAAAQKYRKEFDSWGQGTQVTVSS | high polyreactivity
QVQLVESGGGLVQAGGSLRLSSAASGRTFNVNAMGLYRQAPGKERELVAAIDFSDGRTYYADSVKGRFTISRDNAKNTVYLQMNSLKPADTAVYYCARSFRVGKTWYDYWGQGTQVTVSS | high polyreactivity
